Entry source: BindingDB's records for doi:10.7270/Q2T72FVT

# System name: Serine/threonine-protein kinase PLK1 (Homo sapiens)
# Sequence (P53350 whole entry): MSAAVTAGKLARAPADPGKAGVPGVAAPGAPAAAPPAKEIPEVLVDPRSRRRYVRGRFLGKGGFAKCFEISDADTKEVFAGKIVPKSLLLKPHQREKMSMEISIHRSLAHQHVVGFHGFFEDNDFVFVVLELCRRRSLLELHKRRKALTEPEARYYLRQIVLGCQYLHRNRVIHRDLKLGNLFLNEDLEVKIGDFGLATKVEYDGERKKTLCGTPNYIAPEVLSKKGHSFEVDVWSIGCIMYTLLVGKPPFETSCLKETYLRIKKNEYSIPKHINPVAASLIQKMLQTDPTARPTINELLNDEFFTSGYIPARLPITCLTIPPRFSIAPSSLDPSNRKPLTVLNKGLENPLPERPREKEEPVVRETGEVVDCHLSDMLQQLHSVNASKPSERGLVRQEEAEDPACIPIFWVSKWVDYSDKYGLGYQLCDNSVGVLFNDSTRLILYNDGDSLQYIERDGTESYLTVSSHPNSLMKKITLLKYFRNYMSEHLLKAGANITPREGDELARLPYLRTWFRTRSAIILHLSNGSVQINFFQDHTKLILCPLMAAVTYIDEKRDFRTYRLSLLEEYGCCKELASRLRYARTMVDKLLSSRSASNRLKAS
pIC50: −log10 of the molar value.
Catalogue of pIC50 readings, one per entry.

Solved entries:
Compound	System name	pIC50
CCOC(=O)c1ccc(NC(=O)c2c(O)[nH]c(=O)[nH]c2=O)cc1	Serine/threonine-protein kinase PLK1 (Homo sapiens)	5.64
CCN1C(=O)/C(=C/c2nc3ccccc3c(=O)n2-c2ccccc2)c2ccccc21	Serine/threonine-protein kinase PLK1 (Homo sapiens)	< 4.30
COc1ccc(S(=O)(=O)N(C)CC(=O)Nc2ccccc2C(F)(F)F)cc1	Serine/threonine-protein kinase PLK1 (Homo sapiens)	< 4.30
CC(=O)N1CCc2cc(Br)cc(S(=O)(=O)NCc3ccccn3)c21	Serine/threonine-protein kinase PLK1 (Homo sapiens)	< 4.30
c1ccc(NCc2nnc3n2CCCCC3)cc1	Serine/threonine-protein kinase PLK1 (Homo sapiens)	< 4.30

Missing value: pIC50, Serine/threonine-protein kinase PLK1 (Homo sapiens), entry `CN(C)c1ccc(C(=O)Nc2nc3c(s2)CCCC3)cc1` . Fill in?
< 4.30

====

pIC50: −log10 of the molar value.
pIC50 values recorded for Serine/threonine-protein kinase PLK1 (Homo sapiens)

Compound	Obs value
Nc1ccc2c(c1)C(=O)C(=O)c1ccccc1-2 [2-Amino-phenanthrene-9,10-dione]	5.23
Cc1nc2c(=O)n(C)c(=O)nc-2n(C)n1	4.84
Cc1ccc(-n2c(O)c(C=NCCN3CCOCC3)c(=O)[nH]c2=O)cc1	< 4.30
CCn1cnc2sc(C(=O)N3CCN(c4ccc(OC)cc4)CC3)c(C)c2c1=O	< 4.30
CC1CN(C2CC(C)(C)NC(C)(C)C2)CCC1=O (configuration not stated)	< 4.30

Missing value: pIC50, Serine/threonine-protein kinase PLK1 (Homo sapiens), entry `CCOC(=O)c1cc2n(c1N)-c1ccccc1C2=O` . Fill in?
4.70

Missing value: pIC50, Serine/threonine-protein kinase PLK1 (Homo sapiens), entry `CCCc1nc2sc3c(c2c(=O)n1NC(=O)CCC(=O)O)CCCC3` . Fill in?
< 4.30

Missing value: pIC50, Serine/threonine-protein kinase PLK1 (Homo sapiens), entry `Cc1oc2c(c1C(=O)c1ccccc1)C(=O)C(=O)c1ccccc1-2` . Fill in?
4.36

Missing value: pIC50, Serine/threonine-protein kinase PLK1 (Homo sapiens), entry Cc1ccccc1NS(=O)(=O)c1cc(C(=O)NCc2ccco2)ccc1C [MLS000052108] . Fill in?
< 4.30

Missing value: pIC50, Serine/threonine-protein kinase PLK1 (Homo sapiens), entry O=C(COc1ccccc1)Nc1ccc(S(=O)(=O)N2CCOCC2)cc1 [MLS000108227] . Fill in?
< 4.30

Missing value: pIC50, Serine/threonine-protein kinase PLK1 (Homo sapiens), entry `Fc1ccc(Cn2nnnc2CN2CCN(C3CCCC3)CC2)cc1` . Fill in?
< 4.30

Missing value: pIC50, Serine/threonine-protein kinase PLK1 (Homo sapiens), entry Cc1[nH]n2c(=O)cc(-c3ccc([N+](=O)[O-])cc3)nc2c1-c1ccccc1 [MLS000547439] . Fill in?
< 4.30

====

pIC50: −log10 of the molar value.
pIC50 values recorded for Serine/threonine-protein kinase PLK1 (Homo sapiens, UniProt P53350)

Compound	pIC50
O=C(NCCc1ccccc1)/C(=C\c1ccc([N+](=O)[O-])cc1)NC(=O)c1ccccc1	< 4.30
Oc1ccc2ccc3cccc[n+]3c2c1 [9-benzo[c]quinolizin-11-iumol;iodide]	5.06
COc1cc(S(=O)(=O)N2CCCCCC2)ccc1-n1cnnn1	< 4.30
CC(C)Nc1nnc(SCC(=O)c2c(N)n(Cc3ccccc3)c(=O)n(C)c2=O)s1	< 4.30
CCOCCCNC(=O)CCCOc1ccccc1	< 4.30
O=C(Cc1ccc(Cl)cc1)NCCN1CCCC1	< 4.30
NC(=O)C1CCN(C2=C(Cl)C(=O)c3ccccc3C2=O)CC1	4.48
CCC(=O)N1CCN(c2ccc(NC(=O)c3ccc4c(c3)OCO4)cc2)CC1	< 4.30
CCOc1ccccc1N1CCN(C2=C(NS(=O)(=O)c3cccs3)C(=O)c3ccccc3C2=O)CC1	< 4.30
CC(C)(C)NC(=O)CC(CC(=O)O)c1ccccc1 (stereo not given)	< 4.30

Missing value: pIC50, Serine/threonine-protein kinase PLK1 (Homo sapiens, UniProt P53350), entry `CN1C(=O)N(C)C(=O)C2(Sc3ccccc3C2=O)C1=O` . Fill in?
< 4.30

Missing value: pIC50, Serine/threonine-protein kinase PLK1 (Homo sapiens, UniProt P53350), entry `Nc1cc2nsnc2cc1Br` . Fill in?
4.39

Missing value: pIC50, Serine/threonine-protein kinase PLK1 (Homo sapiens, UniProt P53350), entry `O=C1C(=O)c2ccccc2-c2ccccc21` . Fill in?
5.00
